Numbers sourced from the Immune Epitope Database (IEDB).

Molecular target: HLA-B*15:01
Assay: IEDB peptide-MHC binding, purified MHC/direct/fluorescence; filed as Kd, often an IC50 or EC50 that approximates it; bounds were set here for any values at or beyond the usual limits of such assays
Details: source organism: Escherichia coli O157:H7
Parameter: Kd (nM)
Give just the number in nM; leave the unit off.

Fill in the blank: the reported Kd of LQLTAVFAY is ____. 79.6

Fill in the blank: the reported Kd of RMFEKSTHH is ____. 75.1

* * *

Molecular target: HLA-A*02:02
Assay: IEDB peptide-MHC binding, purified MHC/competitive/radioactivity; filed as Kd, often an IC50 or EC50 that approximates it; bounds were set here for any values at or beyond the usual limits of such assays
Details: source organism: Lassa virus Josiah
Parameter: Kd (nM)
Give just the number in nM; leave the unit off.

Fill in the blank: the reported Kd of LTYSQLMTL is ____. 11.1
